All values here come from the RNAGym collection of RNA variant scans (doi:10.1101/gr.219683.116).

B1: mRNA-splicing (parent)
chain: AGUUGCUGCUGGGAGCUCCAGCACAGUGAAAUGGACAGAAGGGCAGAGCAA

# Variants of: B1
# assay-comment: exon inclusion enrichment index; higher = more inclusion; WT1 exon 5 minigene, HEK293
# reported exon inclusion enrichment index; entries follow

Return exon inclusion enrichment index (reported value) for this variant: AGUUAUAUAUGGGAGCUCCAGCACAGUGAAAUGGAACGAAGGGCAGAGCAA [G5A C6U U7A G8U C9A C36A A37C]
0.0847

Return exon inclusion enrichment index (reported value) for this variant: AGUUACCACCGGGAGCUCCAGCACAGUGACGUGGACAGAAGGGCAGAGCAA [G5A U7C G8A U10C A30C A31G]
3.4

State, in one line, measured exon inclusion enrichment index of AGUUCACACGGGGAGCUCCAGCACAGUGAAAUGGACAGAAGGGCAGAGCAA [G5C C6A U7C G8A U10G]
0.737

Specify measured exon inclusion enrichment index for AGUUGCUGCUCGGAGCUCCAGCACAGUGAAAUGGACAGAAGGGCAGAGCAA [G11C] .
2.05

Return reported exon inclusion enrichment index. Input variant: AGUUACCAGAGGGAGCUCCAGCACAGUGAAAUGGACAGAAGGGCAGAGCAA [G5A U7C G8A C9G U10A]
0.989

Supply recorded exon inclusion enrichment index for AACUGAAGAAGGGAGCUCCAGCACAGUGAAAUGGACAGAAGGGCAGAGCAA [G2A U3C C6A U7A C9A U10A] here.
0.648

Determine from records and report exon inclusion enrichment index for AGUUUCUUUUUCGAGCUCCAGCACAGUGAAAUGGACAGAAGGGCAGAGCAA [G5U G8U C9U G11U G12C]
0.0157

Give the value of exon inclusion enrichment index reported for the following: AGUUCGCGCCGGGAGCUCCAGCACAGUGAAAUGGACAGAAGGGCAGCGCAA [G5C C6G U7C U10C A47C]
3.06

State, in one line, measured exon inclusion enrichment index of AGUUUCUUUUGGGAGCUCCAGCACAGUGAAAUGGACUUAAGGGCAGAGCAA [G5U G8U C9U A37U G38U]
0.0252

Read the entry AGUUUCUUUUGGGAGCUCCAGCACAGUGAAAUGGAGAGAAGGGCAGAGCAA [G5U G8U C9U C36G] and write its reported exon inclusion enrichment index.
0.0708

New cases:
Output measured exon inclusion enrichment index for this item: AGUGUCUUUUGGGAGCUCCAGCACAGUGAAAUGGACAGAAGGGCAGAGCAA [U4G G5U G8U C9U]
0.267

Return exon inclusion enrichment index for the following variant: AGUUGACGACGGGAGCUCCAGCAAUGUGAAAUGGACAGAAGGGCAGAGCAA [C6A U7C C9A U10C C24A A25U]
2.96

Consider the variant AGUUCGCGCCGGGAGCUCCAGCACAGUGAAAUGGACAGAACGGCAGAGCAA [G5C C6G U7C U10C G41C] . State its measured exon inclusion enrichment index.
4.53

Fill in exon inclusion enrichment index for record AGUUUCUUUUGGGAGCCCCAGCACAGUGAAAUGGACAGAAGGGCAGAGCAA [G5U G8U C9U U17C]
0.0866

Specify measured exon inclusion enrichment index for AGUUGAAGAAGGGAGCUCCAGCACAGUGAACAGGACAGAAGGGCAGAGCAA [C6A U7A C9A U10A A31C U32A] .
0.428

Item AGUUGCUGCUGGGAGCUCCGUCACAGUGAAAUGGACAGAAGGGCAGAGCAA [A20G G21U] : provide exon inclusion enrichment index
2.37
